Assay: Pharmacokinetics in mouse plasma
Format: in vivo
Settings: male, C57BL, mouse, plasma; IP, 5 mg/kg, 5 min; read-out: blood concentration

{"STRUCTURE_AS_SMILES": "Cc1cccn2cc(-c3ccc(NC(=O)c4ccccc4Br)cc3)nc12", "concentration at 5 min (ng/mL)": 30}

* * *

Assay: Pharmacokinetics in mouse plasma
Format: in vivo
Conditions: male, C57BL; mouse plasma, PO, 5 mg/kg
Procedure: For pharmacokinetic (PK) analysis, 5 mg/kg MS-0022 was given by IV, PO and IP administration to 7–8 week old male C57BL mice (mouse musculus), and blood was collected after 5, 15, 30, 60, 120, and 240 min, with n = 3. […] Blood samples were analyzed by ChemDiv^'s bioanalytical department. […]

{"STRUCTURE_AS_SMILES": "Cc1cccn2cc(-c3ccc(NC(=O)c4ccccc4Br)cc3)nc12", "UNIT_OF_MEASUREMENT": "s⁻¹", "k el": 0.000195}

* * *

Test: Pharmacokinetics in mouse plasma
Type: in vivo
Conditions: male, C57BL, mouse, plasma; IP, 5 mg/kg, 60 min; read-out: blood concentration

{"STRUCTURE_AS_SMILES": "Cc1cccn2cc(-c3ccc(NC(=O)c4ccccc4Br)cc3)nc12", "UNIT_OF_MEASUREMENT": "ng/mL", "concentration at 60 min": 158}

* * *

Assay: Pharmacokinetics in mouse plasma
Assay type: in vivo
Conditions: male, C57BL; mouse plasma, IP, 5 mg/kg

{"STRUCTURE_AS_SMILES": "Cc1cccn2cc(-c3ccc(NC(=O)c4ccccc4Br)cc3)nc12", "k el": "0.00021 s⁻¹"}

* * *

Test: Pharmacokinetics in mouse plasma
Type: in vivo
Settings: male, C57BL, mouse, plasma; IV, 5 mg/kg, 120 min; read-out: blood concentration
Method: For pharmacokinetic (PK) analysis, 5 mg/kg MS-0022 was given by IV, PO and IP administration to 7–8 week old male C57BL mice (mouse musculus), and blood was collected after 5, 15, 30, 60, 120, and 240 min, with n = 3. […] Blood samples were analyzed by ChemDiv^'s bioanalytical department. […]

{"COMPOUND": "Cc1cccn2cc(-c3ccc(NC(=O)c4ccccc4Br)cc3)nc12 [MS-0022]", "concentration at 120 min, ng/mL": 253}

* * *

Assay: Pharmacokinetics in mouse plasma
Type: in vivo
Details: male, C57BL; mouse plasma, IV, 5 mg/kg
ASSAY_READOUT: half-life (min)

{"STRUCTURE_AS_SMILES": "Cc1cccn2cc(-c3ccc(NC(=O)c4ccccc4Br)cc3)nc12", "UNIT_OF_MEASUREMENT": "min", "NUMBER": 59.3}

* * *

Assay: Pharmacokinetics in mouse plasma
Assay type: in vivo
Details: male, C57BL, mouse, plasma; IP, 5 mg/kg, 15 min; read-out: blood concentration
ASSAY_READOUT: concentration at 15 min (ng/mL)

{"STRUCTURE_AS_SMILES": "Cc1cccn2cc(-c3ccc(NC(=O)c4ccccc4Br)cc3)nc12", "NUMBER": 261}

* * *

Assay: Pharmacokinetics in mouse plasma
Type: in vivo
Details: male, C57BL; mouse plasma, PO, 5 mg/kg
ASSAY_READOUT: half-life (min)

{"STRUCTURE_AS_SMILES": "Cc1cccn2cc(-c3ccc(NC(=O)c4ccccc4Br)cc3)nc12", "ASSAY_READOUT": "half-life", "NUMBER": 59.1}

* * *

Experiment: Pharmacokinetics in mouse plasma
Format: in vivo
Conditions: male, C57BL, plasma, po; mouse, 5 mg/kg; read-out: Per oral bioavailability

{"STRUCTURE_AS_SMILES": "Cc1cccn2cc(-c3ccc(NC(=O)c4ccccc4Br)cc3)nc12", "bioavailability": "98%"}

* * *

Assay: Pharmacokinetics in mouse plasma
Assay type: in vivo
Conditions: male, C57BL, mouse, plasma; IP, 5 mg/kg, 120 min; read-out: blood concentration
ASSAY_READOUT: concentration at 120 min (ng/mL)

{"STRUCTURE_AS_SMILES": "Cc1cccn2cc(-c3ccc(NC(=O)c4ccccc4Br)cc3)nc12", "ASSAY_READOUT": "concentration at 120 min", "NUMBER": 56}

* * *

Test: Pharmacokinetics in mouse plasma
Format: in vivo
Settings: male, C57BL, mouse, plasma; IP, 5 mg/kg, 240 min; read-out: blood concentration
ASSAY_READOUT: concentration at 240 min (ng/mL)

{"STRUCTURE_AS_SMILES": "Cc1cccn2cc(-c3ccc(NC(=O)c4ccccc4Br)cc3)nc12", "ASSAY_READOUT": "concentration at 240 min", "NUMBER": 15}

* * *

Assay: Pharmacokinetics in mouse plasma
Format: in vivo
Conditions: male, C57BL, mouse, plasma, ip, 5 mg/kg, mouse plasma, IP, read-out: Cmax

{"COMPOUND": "Cc1cccn2cc(-c3ccc(NC(=O)c4ccccc4Br)cc3)nc12 [MS-0022]", "UNIT_OF_MEASUREMENT": "ng/mL", "Cmax": 378}

* * *

Test: Compound concentration in mouse liver tissue
Format: in vivo
Details: C57BL, 5 mg/kg, 2 hours after IP administration

{"STRUCTURE_AS_SMILES": "Cc1cccn2cc(-c3ccc(NC(=O)c4ccccc4Br)cc3)nc12", "UNIT_OF_MEASUREMENT": "ng/g", "concentration at 2 h": 244}

* * *

Test: Pharmacokinetics in mouse plasma
Assay type: in vivo
Conditions: male, C57BL; mouse plasma, IP, 5 mg/kg
ASSAY_READOUT: AUC(0-t) (ng·h/mL)

{"STRUCTURE_AS_SMILES": "Cc1cccn2cc(-c3ccc(NC(=O)c4ccccc4Br)cc3)nc12", "ASSAY_READOUT": "AUC(0-t)", "UNIT_OF_MEASUREMENT": "ng·h/mL", "NUMBER": 417}

* * *

Assay: Pharmacokinetics in mouse plasma
Format: in vivo
Conditions: male, C57BL, mouse, plasma; PO, 5 mg/kg, 120 min; read-out: blood concentration

{"STRUCTURE_AS_SMILES": "Cc1cccn2cc(-c3ccc(NC(=O)c4ccccc4Br)cc3)nc12", "concentration at 120 min (ng/mL)": 180}

* * *

Experiment: Pharmacokinetics in mouse plasma
Format: in vivo
Conditions: male, C57BL, mouse, plasma; PO, 5 mg/kg, 15 min; read-out: blood concentration
ASSAY_READOUT: concentration at 15 min (ng/mL)

{"STRUCTURE_AS_SMILES": "Cc1cccn2cc(-c3ccc(NC(=O)c4ccccc4Br)cc3)nc12", "ASSAY_READOUT": "concentration at 15 min", "UNIT_OF_MEASUREMENT": "ng/mL", "NUMBER": 912}
